The measured values listed here are drawn from the RNAGym collection of RNA variant scans (doi:10.7554/elife.80360).

The entries below are paired with their reported self-cleavage.
B1: HDV Ribozyme (parent)
chain: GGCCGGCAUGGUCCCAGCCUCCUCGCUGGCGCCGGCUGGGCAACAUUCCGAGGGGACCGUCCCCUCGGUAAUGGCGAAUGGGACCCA

- Variants of: B1
- protocol description: self-cleavage, relative activity (ratio to wild type); higher = more cleavage; co-transcriptional

The variant listed as C48G G55A shows self-cleavage equal to 0.888

The variant listed as G17A G55C shows self-cleavage equal to 0.742

The variant listed as G52C C61A shows self-cleavage equal to 0.857

The variant listed as G17A U65C shows self-cleavage equal to 0.671

The variant listed as C21G C61A shows self-cleavage equal to 0

The variant listed as C21U C57G shows self-cleavage equal to 0.196

The variant listed as C13A U27A shows self-cleavage equal to 0.831

The variant listed as G40U U72A shows self-cleavage equal to 0.181

The variant listed as U20C A43G shows self-cleavage equal to 0.0978

The variant listed as A45U A70U shows self-cleavage equal to 0.989

The variant listed as G5U U79A shows self-cleavage equal to 0.104
